Listing: inhibition of selected molecules
Assay: growth suppression of yeast trafficking mutant, preliminary HTS, modulators of trafficking downstream of Golgi apparatus project, 1536-format plate, OD 615 nm (AID 637); further: test concentration not given here
Settings: yeast transport mutant growth, absorbance 615 nm, 18 h; active compounds read high
observable: inhibition (%)

[[record]]
molecule = "CC(C(=O)Nc1ccccc1-c1ccccc1)N1CCOCC1 (stereo unspecified)"
value = -4.13

[[record]]
molecule = "COc1ccc(-c2cc(C(=O)NCc3ccc(Cl)cc3)no2)cc1OC"
value = -0.33

[[record]]
molecule = "O=C(CNC1CCCCCC1)Nc1ccc(S(=O)(=O)NC2CC2)cc1"
value = -0.48

[[record]]
molecule = "Cc1ccc2cc3cc(C(=O)NCCN4CCOCC4)oc3nc2c1"
value = 8.67

[[record]]
molecule = "CCN(Cc1nc2cc(OC)c(OC)cc2c(=O)[nH]1)C(=O)c1ccc(S(=O)(=O)N(C)C)cc1"
value = 3.44

[[record]]
molecule = "COc1ccccc1N1CCN(C(=O)CCNS(=O)(=O)c2ccc3c(c2)CCC(=O)N3)CC1"
value = 2.62

[[record]]
molecule = "O=C(c1ccc(S(=O)(=O)N2CCOCC2)cc1)N(c1ccc(F)cc1)C1C=CS(=O)(=O)C1 (stereo unspecified)"
value = -9

[[record]]
molecule = "Cc1ccc(-c2noc(CCC(=O)NC3CCCc4ccccc43)n2)cc1 (stereo unspecified)"
value = -4.67

[[record]]
molecule = "Cc1[nH]c2ccccc2c(=O)c1CN(C)Cc1ccccc1"
value = -0.98

[[record]]
molecule = "Nc1nonc1N1CCCCC1"
value = -7.33

[[record]]
molecule = "O=C1c2ccccc2C(O)(Cc2ccccc2)N1Cc1ccco1 (stereo unspecified)"
value = -9.19

